Origin of measurements: PubChem BioAssay (NCI)

test system: HS 578T breast; assay: NCI tumour cell line growth inhibition, 48 h
Provide the recorded TGI for the entries that follow.
# number only, unit µM dropped from output

Task: Using known records, supply TGI for Nc1ncnc2occ(-c3ccc(NC(=O)Nc4cc(C(F)(F)F)cc(C(F)(F)F)c4)cc3)c12
Output: 8.03

Task: Using known records, supply TGI for O=C(Oc1c(I)ccccc1=O)c1ccc([N+](=O)[O-])cc1
Output: 68.2

###

tested on: OVCAR-8 ovarian; assay: NCI tumour cell line growth inhibition, 48 h; in the data active = GI50 below about 0.43 µM; inactive = the rest
Tick one outcome: true = active, false = inactive

Task: // outcome(item) with item = COC(=O)[C@H](Cc1ccccc1)NC(=O)c1csc([C@@H](C[C@H](C(C)C)N(C)C(=O)[C@@H](NC(=O)[C@H]2CCCCN2C)C2CC2)OC(C)=O)n1
Output: true

Task: // outcome(item) with item = O=C1c2c(O)cccc2C(C(=O)CCCCC(=O)C2c3cccc(O)c3C(=O)c3c(O)cccc32)c2cccc(O)c21
Output: false

Task: // outcome(item) with item = CCN(CC)CCOc1ccc(/C=C2\C[C@H]3[C@@H]4CC=C5C[C@@H](OC(C)=O)CC[C@]5(C)[C@H]4CC[C@]3(C)[C@H]2OC(C)=O)cc1OC
Output: false

Task: // outcome(item) with item = O=C(/C=C/N1CCN(c2cccc(C(F)(F)F)c2)CC1)c1ccc(Cl)cc1Cl
Output: false

###

test system: HL-60(TB) leukemia; assay: NCI tumour cell line growth inhibition, 48 h
Provide the recorded TGI for the entries that follow.

Task: # lookup: HL-60(TB) leukemia TGI, key = CC1(C)OC[C@@H](/C=C\CCO[Si](c2ccccc2)(c2ccccc2)C(C)(C)C)N1C(=O)c1ccccc1
Output: 14.6 µM

Task: # lookup: HL-60(TB) leukemia TGI, key = CN(C)c1ccc(-c2nc(-c3cc4c(ccc5ccccc54)oc3=O)cs2)cc1
Output: > 100 µM

Task: # lookup: HL-60(TB) leukemia TGI, key = c1ccc(C2=NN3CN(N2)c2ccccc2OCCCOc2ccccc23)cc1
Output: > 100 µM

Task: # lookup: HL-60(TB) leukemia TGI, key = Cc1ccc(Nc2nc(=O)[nH]c(=O)[nH]2)cc1N
Output: > 100 µM

Task: # lookup: HL-60(TB) leukemia TGI, key = CC(=O)Oc1ccc2cc(Oc3ccc(Cl)cc3)c(=O)oc2c1
Output: > 100 µM

Task: # lookup: HL-60(TB) leukemia TGI, key = c1ccc(SCCCC(Sc2ccccc2)Sc2ccccc2)cc1
Output: > 100 µM

Task: # lookup: HL-60(TB) leukemia TGI, key = CCOC(=O)c1cnc2[nH]c(=O)c3ccccc3n2c1=O
Output: > 100 µM

Task: # lookup: HL-60(TB) leukemia TGI, key = COc1ccccc1C(=O)c1cnc(NC2CCN(S(C)(=O)=O)CC2)nc1N
Output: 14.3 µM

Task: # lookup: HL-60(TB) leukemia TGI, key = CN(C)c1ccc(/C=C(\NC(=O)c2ccccc2)C(=O)Nc2ccccc2C(=O)NN2C(=O)CSC2c2ccc(N(C)C)cc2)cc1 (centres undefined)
Output: > 100 µM

###

tested on: SNB-75 CNS; experiment: NCI tumour cell line growth inhibition, 48 h
Where a SMILES comes first, the peptide text is derived from it. [ ]: non-standard residue; d: D form. The star is where a group is joined. ξ: configuration not given here. NMeY = CN[C@@H](Cc1ccc(O)cc1)C(=O)O; Cbz = O=C(OCc1ccccc1)*; ξA = CC(N)C(=O)O
Provide the recorded TGI for the entries that follow.

Task: Using known records, supply TGI for CC(=O)Oc1ccc2cc(Oc3ccc(Cl)cc3)c(=O)oc2c1
Output: > 100 µM

Task: Using known records, supply TGI for CCOC(=O)CCC(NC(=O)OCc1ccccc1)C(=O)NNC(=O)OC(C)(C)C (stereo not given)
Output: > 100 µM

Task: Using known records, supply TGI for CCCCCCCCCCCCC(=O)NCC(=O)NC(Cc1ccccc1)C(=O)Oc1ccc([N+](=O)[O-])cc1 (stereo not given)
Output: > 100 µM

Task: Using known records, supply TGI for COc1ccc2c(c1O)[C@@]13C=C(O)C(=O)C=C1[C@@H](C2)N(C)CC3
Output: > 100 µM

Task: Using known records, supply TGI for c1ccc2c(c1)CC1c3[nH]c4ccccc4c3CCN21 (stereo not given)
Output: > 10 µM

Task: Using known records, supply TGI for O=C1c2ccccc2S(=O)(=O)c2ccccc21
Output: > 100 µM

Task: Using known records, supply TGI for CCCCn1cc(C(=O)O)c(=O)c2c3sccc3ccc21
Output: > 100 µM

Task: Using known records, supply TGI for Cc1ccc(S(=O)(=O)Nn2c(-c3ccccc3)c(C#N)c(-c3ccc([N+](=O)[O-])cc3)c(C#N)c2=O)cc1
Output: > 100 µM

Task: Using known records, supply TGI for COC(=O)C(C)N1C(=O)c2ccccc2I1OC(C)=O (stereo not given)
Output: > 100 µM

Task: Using known records, supply TGI for CN1C(=O)c2cc(Cl)nc3c(NC(=O)c4cccc(Cl)c4)c(Cl)c(NC(=O)c4cccc(Cl)c4)c1c23
Output: 2.84 µM

Task: Using known records, supply TGI for N#Cc1c(=O)c2cccnc2n2c1[nH]c1ccccc12
Output: > 100 µM

Task: Using known records, supply TGI for Cc1ccc(Nc2nc(=O)[nH]c(=O)[nH]2)cc1N
Output: > 100 µM

Task: Using known records, supply TGI for Cc1nn(-c2ccccc2)c2c1C1C(=C(c3ccc(Cl)cc3)N2)C(=O)Nc2ccccc21 (stereo not given)
Output: 96.3 µM

Task: Using known records, supply TGI for NC(N)=N/N=C(\c1ccc(Cl)cc1)C1CC1
Output: 68.9 µM

Task: Using known records, supply TGI for CC1(C)OC[C@@H](/C=C\CCO[Si](c2ccccc2)(c2ccccc2)C(C)(C)C)N1C(=O)c1ccccc1
Output: > 100 µM

Task: Using known records, supply TGI for CC1=CC2=C(C)C3(CC3)[C@@](C)(O)C(=O)C2=C1
Output: 0.425 µM

Task: Using known records, supply TGI for COc1ccc(C[C@@H](C(=O)NCC(N)=O)N(C)C(=O)[C@@H]2CCCN2C(=O)[C@H](CC(C)C)NC(=O)C(C)NC(=O)OCc2ccccc2)cc1 (stereo not given in full) (Cbz-[ξA]LP[NMeY](Me)G-NH2)
Output: > 100 µM

Task: Using known records, supply TGI for NC(Cc1nn[nH]n1)C(=O)O (stereo not given)
Output: > 100 µM

Task: Using known records, supply TGI for CN(C)CCCn1c2ccccc2c2cnccc21
Output: > 100 µM

Task: Using known records, supply TGI for O=C(N[C@@H]1CCCc2ccccc21)[C@H](CCC(=O)N1CCN(C2CCCCC2)CC1)N1C(=O)[C@@H](N2C(=O)OC[C@@H]2c2ccccc2)[C@H]1/C=C/c1ccccc1
Output: 4.19 µM
